Data provenance is paper PMC10364322.

- Tested on: hiPSC-CMs (iCell-Cardiomyocytes^2)
- protocol.details: MEA impedance (cytotoxicity readout) in hiPSC-CMs
- stated.conditions: 3 µM; 48h
// values below are reported Imp (impedance), % change from baseline
Only the number, expressed in %, is required.

Use the examples below as a reference point.
CC1(C)S[C@@H]2[C@H](NC(=O)[C@H](N)c3ccc(O)cc3)C(=O)N2[C@H]1C(=O)O
-3
C#Cc1cccc(Nc2ncnc3cc(OCCOC)c(OCCOC)cc23)c1
-1
C[C@H](CS)C(=O)N1CCC[C@H]1C(=O)O
-7

Sure, the documented Imp (impedance), % change from baseline for COc1nc(N)nc2c1ncn2[C@@H]1O[C@H](COP(=O)(N[C@@H](C)C(=O)OCC(C)(C)C)Oc2cccc3ccccc23)[C@@H](O)[C@@]1(C)O (stereo partly drawn) is -5

// Imp (impedance), % change from baseline lookup, molecule = COc1cc2c(Nc3ccc(Br)cc3F)ncnc2cc1OCC1CCN(C)CC1 , result: -30

Entry O=C(O)COCCN1CCN(C(c2ccccc2)c2ccc(Cl)cc2)CC1 (stereo not drawn) ; Imp (impedance), % change from baseline = -3

====

- System: hiPSC-CMs (iCell-Cardiomyocytes^2)
- stated.conditions: 3 µM, 96h
assay.metric: EAD, number of observations/total well numbers

Please review the entries below; each comes with its answer.
CC(C)(Sc1cc(C(C)(C)C)c(O)c(C(C)(C)C)c1)Sc1cc(C(C)(C)C)c(O)c(C(C)(C)C)c1
0/5
COc1nc(N)nc2c1ncn2[C@@H]1O[C@H](COP(=O)(N[C@@H](C)C(=O)OCC(C)(C)C)Oc2cccc3ccccc23)[C@@H](O)[C@@]1(C)O (stereo partly drawn)
0/5

The measured EAD, number of observations/total well numbers associated with N=C(N)c1ccc(OCCCCCOc2ccc(C(=N)N)cc2)cc1 reads 0/6

EAD, number of observations/total well numbers measured on COc1cc2c(Nc3ccc(Br)cc3F)ncnc2cc1OCC1CCN(C)CC1 = 0/5

Value of measured EAD, number of observations/total well numbers for the entry COc1cccc2c1C(=O)c1c(O)c3c(c(O)c1C2=O)C[C@@](O)(C(=O)CO)C[C@@H]3O[C@H]1C[C@H](N)[C@H](O)[C@H](C)O1 : 0/5

// field: EAD, number of observations/total well numbers; key: C#Cc1cccc(Nc2ncnc3cc(OCCOC)c(OCCOC)cc23)c1 ; value = 0/5

====

- Tested on: hiPSC-CMs (iCell-Cardiomyocytes^2)
- stated.conditions: 0.3 µM, 96h
assay.metric: Cessation of beating, number of observations/total well numbers

COc1cccc2c1C(=O)c1c(O)c3c(c(O)c1C2=O)C[C@@](O)(C(=O)CO)C[C@@H]3O[C@H]1C[C@H](N)[C@H](O)[C@H](C)O1
5/5
C#Cc1cccc(Nc2ncnc3cc(OCCOC)c(OCCOC)cc23)c1
0/5
COc1nc(N)nc2c1ncn2[C@@H]1O[C@H](COP(=O)(N[C@@H](C)C(=O)OCC(C)(C)C)Oc2cccc3ccccc23)[C@@H](O)[C@@]1(C)O (stereo partly shown)
0/5
Cc1cn(-c2cc(NC(=O)c3ccc(C)c(Nc4nccc(-c5cccnc5)n4)c3)cc(C(F)(F)F)c2)cn1
0/5
COc1cc2c(Nc3ccc(Br)cc3F)ncnc2cc1OCC1CCN(C)CC1
0/5

According to the records, this molecule CC(C)(Sc1cc(C(C)(C)C)c(O)c(C(C)(C)C)c1)Sc1cc(C(C)(C)C)c(O)c(C(C)(C)C)c1 displays Cessation of beating, number of observations/total well numbers of 0/5

Record N=C(N)c1ccc(OCCCCCOc2ccc(C(=N)N)cc2)cc1 , field Cessation of beating, number of observations/total well numbers: 0/5
